- EXPERIMENTAL_SYSTEM: Sodium channel protein type 5 subunit alpha (Homo sapiens); further: assay procedure not described here
- Sequence (Q14524 whole entry): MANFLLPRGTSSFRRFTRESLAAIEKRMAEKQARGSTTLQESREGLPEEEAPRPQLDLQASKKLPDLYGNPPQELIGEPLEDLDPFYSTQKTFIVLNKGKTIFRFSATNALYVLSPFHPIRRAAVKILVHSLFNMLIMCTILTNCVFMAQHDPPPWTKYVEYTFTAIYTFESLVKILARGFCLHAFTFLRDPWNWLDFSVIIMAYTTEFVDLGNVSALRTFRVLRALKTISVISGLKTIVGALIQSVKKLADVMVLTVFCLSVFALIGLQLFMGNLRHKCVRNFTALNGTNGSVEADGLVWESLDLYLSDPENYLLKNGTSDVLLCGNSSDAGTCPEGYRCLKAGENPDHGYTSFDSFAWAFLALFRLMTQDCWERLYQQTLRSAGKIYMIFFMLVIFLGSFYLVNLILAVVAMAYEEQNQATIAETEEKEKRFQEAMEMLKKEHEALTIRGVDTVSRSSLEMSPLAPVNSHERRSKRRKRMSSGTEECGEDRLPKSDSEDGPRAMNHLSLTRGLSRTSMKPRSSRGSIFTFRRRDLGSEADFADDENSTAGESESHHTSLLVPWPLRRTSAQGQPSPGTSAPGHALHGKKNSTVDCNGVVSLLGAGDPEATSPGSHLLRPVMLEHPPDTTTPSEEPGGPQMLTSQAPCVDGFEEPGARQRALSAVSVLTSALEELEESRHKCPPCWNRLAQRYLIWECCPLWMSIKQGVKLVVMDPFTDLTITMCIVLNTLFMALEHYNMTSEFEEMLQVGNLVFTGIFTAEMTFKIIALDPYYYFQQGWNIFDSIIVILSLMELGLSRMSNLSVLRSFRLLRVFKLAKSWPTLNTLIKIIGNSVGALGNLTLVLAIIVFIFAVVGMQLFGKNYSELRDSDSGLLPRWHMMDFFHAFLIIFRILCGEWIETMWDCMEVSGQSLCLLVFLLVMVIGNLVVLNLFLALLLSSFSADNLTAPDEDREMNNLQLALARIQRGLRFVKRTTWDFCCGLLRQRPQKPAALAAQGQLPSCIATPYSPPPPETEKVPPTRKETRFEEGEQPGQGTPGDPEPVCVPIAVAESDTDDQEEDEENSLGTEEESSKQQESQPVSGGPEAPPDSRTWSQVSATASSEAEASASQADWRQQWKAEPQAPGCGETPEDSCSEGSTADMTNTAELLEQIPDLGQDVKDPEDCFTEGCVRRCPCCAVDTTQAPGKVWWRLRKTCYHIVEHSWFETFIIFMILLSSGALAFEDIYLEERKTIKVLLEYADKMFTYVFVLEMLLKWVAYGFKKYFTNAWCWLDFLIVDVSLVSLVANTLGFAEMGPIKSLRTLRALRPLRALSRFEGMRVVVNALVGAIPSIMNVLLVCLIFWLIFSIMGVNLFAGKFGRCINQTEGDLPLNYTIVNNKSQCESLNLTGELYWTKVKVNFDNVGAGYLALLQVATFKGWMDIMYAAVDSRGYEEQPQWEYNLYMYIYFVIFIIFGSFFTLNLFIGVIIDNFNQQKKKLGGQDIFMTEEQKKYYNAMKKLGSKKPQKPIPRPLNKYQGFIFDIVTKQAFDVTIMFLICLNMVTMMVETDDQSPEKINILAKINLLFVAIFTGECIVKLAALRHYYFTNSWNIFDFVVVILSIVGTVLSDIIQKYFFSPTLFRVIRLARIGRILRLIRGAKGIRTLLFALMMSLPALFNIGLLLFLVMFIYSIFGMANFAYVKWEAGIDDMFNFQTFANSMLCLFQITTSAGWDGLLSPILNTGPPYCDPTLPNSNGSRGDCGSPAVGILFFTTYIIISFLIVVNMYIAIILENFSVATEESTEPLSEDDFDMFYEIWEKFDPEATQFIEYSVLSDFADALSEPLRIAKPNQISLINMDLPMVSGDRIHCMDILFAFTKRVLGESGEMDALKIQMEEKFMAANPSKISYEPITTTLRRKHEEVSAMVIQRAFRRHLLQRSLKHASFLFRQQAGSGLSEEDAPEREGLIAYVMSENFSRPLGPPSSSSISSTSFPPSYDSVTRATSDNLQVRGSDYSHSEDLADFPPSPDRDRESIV
- Assay type: functional, cell-based

{"COMPOUND": "CN(C)CCc1c[nH]c2ccc(Cn3cncn3)cc12 [RIZATRIPTAN]", "AC50": "> 30 µM"}
{"COMPOUND": "N[C@@H](CC(=O)N1CCn2c(nnc2C(F)(F)F)C1)Cc1cc(F)c(F)cc1F [SITAGLIPTIN]", "AC50": "> 150 µM"}
{"COMPOUND": "CC(C)N(CCC(C(N)=O)(c1ccccc1)c1ccccn1)C(C)C (configuration not stated) [DISOPYRAMIDE]", "AC50": "> 50 µM"}
{"COMPOUND": "OC[C@H]1O[C@@H](c2ccc(Cl)c(Cc3ccc(O[C@H]4CCOC4)cc3)c2)[C@H](O)[C@@H](O)[C@@H]1O [EMPAGLIFLOZIN]", "AC50": "> 50 µM"}
{"COMPOUND": "O=C1CCc2cc(OCCCCc3nnnn3C3CCCCC3)ccc2N1 [CILOSTAZOL]", "AC50": "> 50 µM"}
{"COMPOUND": "CC(C)COCC(CN(Cc1ccccc1)c1ccccc1)N1CCCC1 (configuration not stated) [BEPRIDIL]", "AC50": "2.1 µM"}
{"COMPOUND": "CCC1(c2ccccc2)CCC(=O)NC1=O (configuration not stated) [GLUTETHIMIDE]", "AC50": "> 50 µM"}

* * *

- EXPERIMENTAL_SYSTEM: Muscarinic acetylcholine receptor M2 (Homo sapiens); further: assay procedure not described here
- Sequence (P08172 whole entry): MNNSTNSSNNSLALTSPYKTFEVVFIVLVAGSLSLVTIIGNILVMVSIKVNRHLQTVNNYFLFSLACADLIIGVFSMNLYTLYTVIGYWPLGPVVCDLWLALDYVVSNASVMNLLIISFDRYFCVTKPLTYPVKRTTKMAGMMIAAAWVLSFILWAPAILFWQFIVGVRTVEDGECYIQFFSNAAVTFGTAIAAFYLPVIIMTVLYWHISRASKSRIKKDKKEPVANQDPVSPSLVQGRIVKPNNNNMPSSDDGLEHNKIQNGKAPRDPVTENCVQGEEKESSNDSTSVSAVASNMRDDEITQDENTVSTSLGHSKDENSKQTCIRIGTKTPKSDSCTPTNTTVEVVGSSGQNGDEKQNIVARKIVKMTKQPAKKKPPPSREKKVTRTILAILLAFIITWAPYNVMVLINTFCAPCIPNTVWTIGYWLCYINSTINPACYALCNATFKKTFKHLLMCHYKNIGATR
- Assay type: functional, cell-based
The entries below come with measured AC50 values attached.

{"COMPOUND": "O=C1CCc2cc(OCCCCc3nnnn3C3CCCCC3)ccc2N1", "EXPERIMENTAL_SYSTEM": "Muscarinic acetylcholine receptor M2 (Homo sapiens)", "AC50": "> 30 µM"}
{"COMPOUND": "C=C[C@@]1(C)CC(=O)[C@]2(O)[C@@]3(C)[C@@H](O)CCC(C)(C)[C@@H]3[C@H](O)[C@H](OC(C)=O)[C@@]2(C)O1", "EXPERIMENTAL_SYSTEM": "Muscarinic acetylcholine receptor M2 (Homo sapiens)", "AC50": "11 µM"}
{"COMPOUND": "COCC1=C(C(=O)O)N2C(=O)[C@@H](NC(=O)/C(=N\\OC)c3csc(N)n3)[C@H]2SC1", "EXPERIMENTAL_SYSTEM": "Muscarinic acetylcholine receptor M2 (Homo sapiens)", "AC50": "> 30 µM"}
{"COMPOUND": "O=[N+]([O-])c1ccc(O)c2ncccc12", "EXPERIMENTAL_SYSTEM": "Muscarinic acetylcholine receptor M2 (Homo sapiens)", "AC50": "> 30 µM"}
{"COMPOUND": "CCN(CC)CCN1C(=O)CN=C(c2ccccc2F)c2cc(Cl)ccc21", "EXPERIMENTAL_SYSTEM": "Muscarinic acetylcholine receptor M2 (Homo sapiens)", "AC50": "> 10 µM"}
{"COMPOUND": "CC(C(=O)O)c1ccc(-c2ccccc2)c(F)c1 (stereo unspecified)", "EXPERIMENTAL_SYSTEM": "Muscarinic acetylcholine receptor M2 (Homo sapiens)", "AC50": "> 10 µM"}
{"COMPOUND": "CC(S)C(=O)NCC(=O)O (stereo unspecified)", "EXPERIMENTAL_SYSTEM": "Muscarinic acetylcholine receptor M2 (Homo sapiens)", "AC50": "> 30 µM"}
{"COMPOUND": "CCOC(=O)O[C@]1(C(=O)OCCl)CC[C@H]2[C@@H]3CCC4=CC(=O)C=C[C@]4(C)[C@H]3[C@@H](O)C[C@@]21C [LOTEPREDNOL ETABONATE]", "EXPERIMENTAL_SYSTEM": "Muscarinic acetylcholine receptor M2 (Homo sapiens)", "AC50": "> 30 µM"}
{"COMPOUND": "C/C(=C\\C(=O)OCCCCCCCCC(=O)O)C[C@@H]1OC[C@H](C[C@@H]2O[C@H]2[C@@H](C)[C@H](C)O)[C@@H](O)[C@H]1O", "EXPERIMENTAL_SYSTEM": "Muscarinic acetylcholine receptor M2 (Homo sapiens)", "AC50": "> 10 µM"}
{"COMPOUND": "CN1CCC(=C2c3ccccc3CCc3cccnc32)CC1", "EXPERIMENTAL_SYSTEM": "Muscarinic acetylcholine receptor M2 (Homo sapiens)", "AC50": "0.08 µM"}
{"COMPOUND": "Cc1ncc2n1-c1ccc(Cl)cc1C(c1ccccc1F)=NC2", "EXPERIMENTAL_SYSTEM": "Muscarinic acetylcholine receptor M2 (Homo sapiens)", "AC50": "> 10 µM"}
